assay_explanation: physchem
condition_description: pH 6
property_label: solubility

| substance | property_label | reading |
| --- | --- | --- |
| H-VAGLAASGLHGSAWLVPGEQPVSGPHHGKQ-OH | solubility | > 2000 µg/mL |
| H-MAGPKGFQYRALYPFRRER-OH | solubility | > 2000 µg/mL |
| H-DDNGNILDPDKTSTIALFKAHEV-OH | solubility | > 2000 µg/mL |
| H-YLSHTLGAASSFMRPTVPPPQF-OH | solubility | > 2000 µg/mL |
| H-ALCPASRALEEKKGNYVV-OH | solubility | > 2000 µg/mL |
| H-DHAPEFPAREMLLKYQKLLCQERYFL-OH | solubility | < 2000 µg/mL |
| H-TKRQVILLHTELERFLEYLPLRF-OH | solubility | > 2000 µg/mL |
| H-ADRRRQRSTFRAVLHFVEGGESEE-OH | solubility | < 2000 µg/mL |
| H-GSGSQMPAWRTRGAISASSTQKTPTTRL-OH | solubility | > 2000 µg/mL |
| H-KGEKNGMTFSSTKDYVNNV-OH | solubility | > 2000 µg/mL |
| H-LVGQLKRVPRTGRVYRNVQRPESVS-OH | solubility | > 2000 µg/mL |
| H-VNGISSQPQVPFYPNLQKSQYYSTV-OH | solubility | > 2000 µg/mL |
| H-DHAPEFPAREMLLKYQKLLSQER-OH | solubility | > 2000 µg/mL |
| H-EYWKVLDGELEVAPEYPQSTARDWL-OH | solubility | < 2000 µg/mL |
| H-KLAWRGRISSSGCPSMTSPPSPMFGMTLHT-OH | solubility | > 2000 µg/mL |
| H-EVVGGYTWPSGNIYQGYWAQGKR-OH | solubility | > 2000 µg/mL |
| H-RQRRGRLGLPGEAGLEGFEPSDALGPD-OH | solubility | > 2000 µg/mL |
| H-PENDDLFMMPRIVDVTSLATEGG-OH | solubility | > 2000 µg/mL |
| H-TFPKKIQMLARDFLDEY-OH | solubility | > 2000 µg/mL |
| H-DGVSEEFWLVDLLPSTHYT-OH | solubility | < 2000 µg/mL |
| H-AASAAAFPSQRTSWEFLQSLVSIKQEK-OH | solubility | > 2000 µg/mL |
| H-GRMSPSQFARVPGYVGSPLAAMNPK-OH | solubility | > 2000 µg/mL |
| H-GLEQLESIINFEKLTEWTSS-OH | solubility | < 2000 µg/mL |
| H-RPAGRTQLLWTPAAPTAMAEVGPGHTP-OH | solubility | > 2000 µg/mL |
| H-DPDVGVNSLQQYYLSPDLHFSLI-OH | solubility | < 2000 µg/mL |
| H-NILHQEELIAQKKWEIEAKMEQK-OH | solubility | > 2000 µg/mL |

---

assay_explanation: pH of peptide solutions in DMSO/D5W, with succinate, and with Hiltonol
Format: physicochemical
property_label: pH of peptides in DMSO/D5W/5nnM Succinate and Hiltonol

| substance | reading |
| --- | --- |
| H-LRVFIGNIAVNHAPVSLRPGLGLPPGAPPGTVP-OH [CS7412] | 6.96 |
| H-SYDSVIRELLQKPNVRVVVL-OH [CS7425] | 6.65 |
| H-LLTDRNTSGTTFTLLGVSDYPELQVP-OH [CS7409] | 6.62 |
| H-LLTDRNTSGTTFTLLGVSDYPELQVPIPQAGLG-OH [CS7408] | 6.75 |
| H-AHRQGEKQHLLPVFSRLALRLPWRHSVQL-OH [CS6941] | 6.78 |
| H-VQLSIQDVIRRARLSTVPTAQRVALRSGWI-OH [CS7413] | 7.02 |
| H-AESAQRQGPLGGGEQSANEF-OH [CS7417] | 6.5 |
| H-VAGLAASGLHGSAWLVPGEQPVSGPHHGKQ-OH [CS6931] | 6.66 |
| H-DSAVDKGHPNRSALSLTPGLRIGPSGLFLVFLA-OH [CS7411] | 6.94 |
| H-PLMQTELHQLVPEADPEEMA-OH [CS7430] | 6.37 |
| H-YLLPKTAVVLRCPALRVRKP-OH [CS7418] | 6.96 |
| H-VEQGHVRVGPDVVTHPAFLV-OH [CS7427] | 6.52 |
| H-KKNITNLSRLVVRPDTDAVY-OH [CS7431] | 6.69 |
| H-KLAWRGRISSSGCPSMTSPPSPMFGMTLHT-OH [CS6919] | 6.99 |

---

assay_explanation: Short-term room temperature stability of Pool 3 mixed with Hiltonol (RP-HPLC)
Type: physicochemical
condition_description: Pool 3 + Hiltonol, 6 Hours RT
// reported Total Impurities per item
property_label: Total Impurities

| substance | reading |
| --- | --- |
| H-SKRGVGAKTLLLPDPFLFWPCLEGTRRSL-OH [CS6934] | 221.46 |
| H-AESAQRQGPNGGGEQSANEF-OH [CS7416] | 132.83 |
| H-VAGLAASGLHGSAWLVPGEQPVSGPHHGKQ-OH [CS6931] | 311.37 |

---

assay_explanation: pH of peptide solutions in DMSO/D5W, with succinate, and with Hiltonol
Assay type: physicochemical
property_label: pH of peptides in DMSO/D5W/5mM S. Succinate spike

| substance | reading |
| --- | --- |
| H-LRVFIGNIAVNHAPVSLRPGLGLPPGAPPGTVP-OH [CS7412] | 6.61 |
| H-KKNITNLSRLVVRPDTDAVY-OH [CS7431] | 6.45 |
| H-ALSLTPGLRIGPSGLFLVFLAESAVDKGHPNRS-OH [CS7410] | 6.46 |
| H-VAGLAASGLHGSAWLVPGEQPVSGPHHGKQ-OH [CS6931] | 6.42 |

---

assay_explanation: physchem
condition_description: pH 6

| substance | solubility |
| --- | --- |
| H-GTKALQLHSIAGRWPRMEPWVVESMSLGVP-OH | > 2000 µg/mL |
| H-DLSYVSDQNGGVPDQILLHLRPTED-OH | > 2000 µg/mL |
| H-RARQILIASHLPFYELRHNQVES-OH | > 2000 µg/mL |
| H-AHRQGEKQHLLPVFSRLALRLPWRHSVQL-OH | > 2000 µg/mL |
| H-EDSKYQNLLPFFVGHNMLLVSEE-OH | < 2000 µg/mL |
| H-GLEQLESIINFEKL-OH | > 2000 µg/mL |
| H-LRVFIGNIAVNHAPVSLRPGLGLPPGAPPGTVP-OH | < 2000 µg/mL |
| H-LEEVAQRSHAVRSPGSPLILEVG-OH | > 2000 µg/mL |
| H-KMQRRNDDKSILMHGLVSLRESSRG-OH | > 2000 µg/mL |
| H-SHNELADSGIPENSFNVSSLVE-OH | > 2000 µg/mL |
| H-GSYLVALGAHTGEES-OH | > 2000 µg/mL |
| H-DVGVNSLQQYYLSPDLHFSLIQKENLD-OH | < 2000 µg/mL |
| H-EEFNRRVRENPWDTQLWMAFVAFQDE-OH | < 2000 µg/mL |
| H-PAAVDSVTIPPAQCYLSLLHL-OH | > 2000 µg/mL |
| H-LTKLKFSLKKSFNFFDEYF-OH | < 2000 µg/mL |
| H-SVLREDLGQLEYKYQYAYFRMGIKHPD-OH | < 2000 µg/mL |
| H-AALCPASRALEEKKGNYV-OH | > 2000 µg/mL |
| H-ALSLTPGLRIGPSGLFLVFLAESAVDKGHPNRS-OH | > 2000 µg/mL |
| H-TIKNSDKNVVLEHFG-OH | > 2000 µg/mL |
| H-TLKEEVNELQYRQKQLELLITNLMRQVD-OH | < 2000 µg/mL |
| H-NQVLASRYGIRGFSTIKIFQKGESPV-OH | > 2000 µg/mL |
| H-DHVSIILLSATIPNALEFADWIG-OH | < 2000 µg/mL |
| H-WCTEMKRVFGFPVHYTDVSNMS-OH | > 2000 µg/mL |
| H-VQLSIQDVIRRARLSTVPTAQRVALRSGWI-OH | > 2000 µg/mL |
| H-TNGPEKNSSSFPSSVDYAASGPRKL-OH | > 2000 µg/mL |
| H-YFDVVERSTEKIVDTSLIFNI-OH | < 2000 µg/mL |
| H-SPIKLVQKVASKIPFPDRITEESV-OH | > 2000 µg/mL |
